Target: Neu5Ac(a2-6)GalNAc(b1-4)GlcNAc6S
Experiment: glycan array binding signal (z-score within array); higher = stronger binding
Conditions: glycan notation: IUPAC condensed, linker removed
Shown is part of a subset that was picked to be rich in the strongest signals.

binder	glycan array binding signal (z-score)
OGAA (protein) MVQKESQATLEERESELSSNPAASAGASLEPPAAPAPGEDNPAGAGGAAVAGAAGGARRFLCGVVEGFYGRPWVMEQRKELFRRLQKWELNTYLYAPKDDYKHRMFWREMYSVEEAEQLMTLISAAREYEIEFIYAISPGLDITFSNPKEVSTLKRKLDQVSQFGCRSFALLFADIDHNMCAADKEVFSSFAHAQVSITNEIYQYLGEPETFLFCPTEYCGTFCYPNVSQSPYLRTVGEKLLPGIEVLWTGPKVVSKEIPVESIEEVSKIIKRAPVIWDNIHANDYDQKRLFLGPYKGRSTELIPRLKGVLTNPNCEFEANYVAIHTLATWYKSNMNGVRKDVVMTDSEDSTVSIQIKLENEGSDEDIETDVLYSPQMALKLALTEWLQEFGVPHQY	-0.012

Values were extracted from the supplement of paper PMC8728848.
